Item-by-item account of inhibitory rate (%) at 1.0 μL
# SYSTEM_NAME: EGFR kinase (EGFR intracellular domain) (Homo sapiens)
# Construct: made in house; host or cells: SF-21 insect cells infected with recombinant baculovirus BAC-EGFR
# Sequence (P00533 669-1210): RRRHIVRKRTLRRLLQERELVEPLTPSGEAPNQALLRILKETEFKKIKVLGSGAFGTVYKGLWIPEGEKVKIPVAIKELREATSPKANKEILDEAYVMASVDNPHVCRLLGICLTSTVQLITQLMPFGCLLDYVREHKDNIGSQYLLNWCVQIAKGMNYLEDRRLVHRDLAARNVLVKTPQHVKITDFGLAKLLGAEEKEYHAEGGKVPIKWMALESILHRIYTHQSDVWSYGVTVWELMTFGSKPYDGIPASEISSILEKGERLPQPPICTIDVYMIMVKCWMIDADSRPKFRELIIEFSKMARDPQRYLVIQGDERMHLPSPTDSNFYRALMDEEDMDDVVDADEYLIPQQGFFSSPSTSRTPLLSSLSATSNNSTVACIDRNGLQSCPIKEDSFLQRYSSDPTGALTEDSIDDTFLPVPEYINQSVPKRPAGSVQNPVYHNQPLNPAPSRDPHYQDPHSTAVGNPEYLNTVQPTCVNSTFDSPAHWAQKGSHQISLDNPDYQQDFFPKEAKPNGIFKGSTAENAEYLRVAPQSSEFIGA
# TEST_DETAILS: Determination of EGFR kinase inhibitory activity
# Format: biochemical
# Design: concentration or dose not given beside the values
# RUN_PARAMETERS: compound at 1.0 μL (so in the source), [γ-32P]ATP, poly-Glu:Tyr (4:1) substrate
# Experimental: Human EGFR gene was cloned by RT-PCR using total RNA prepared from A431 cells as a template. […] EGFR kinase reaction was performed using a 96 well plate. […] The radioactivity was measured using TopCount (PerkinElmer). EGFR kinase inhibitory rate (%) of the test compound was calculated by the following formula: […]
ASSAY_READOUT: inhibitory rate (%) at 1.0 μL

> print(dat)
                                smiles.code                  assay.readout  recorded.value
1  CC(=O)NCCn1ccc2ncnc(Nc3ccc(Oc4cccc5nscc45)c(Cl)c3)c21  inhibitory rate (%) at 1.0 μL              95
2  CC(C)(CO)C(=O)NCCn1ccc2ncnc(Nc3ccc(Oc4cccc5sncc45)c(Cl)c3)c21  inhibitory rate (%) at 1.0 μL              98
3  Cn1ccc2ncnc(Nc3ccc(Oc4cccc5sncc45)c(Cl)c3)c21  inhibitory rate (%) at 1.0 μL              99
4  CS(=O)(=O)CC(=O)NCCn1ccc2ncnc(Nc3ccc(Oc4cccc5sncc45)c(Cl)c3)c21.CS(=O)(=O)O  inhibitory rate (%) at 1.0 μL             100
5  OCCn1ccc2ncnc(Nc3ccc(Oc4cccc5sncc45)c(Br)c3)c21  inhibitory rate (%) at 1.0 μL              99
6  CC(C)(N)CC(=O)NCCn1ccc2ncnc(Nc3ccc(Oc4cccc5sncc45)c(Cl)c3)c21  inhibitory rate (%) at 1.0 μL              99

---

# SYSTEM_NAME: HER2 kinase (HER2 intracellular domain) (Homo sapiens, UniProt P04626)
# Construct: made in house; host or cells: SF-21 insect cells infected with recombinant baculovirus BAC-HER2
# Sequence (P04626 676-1255): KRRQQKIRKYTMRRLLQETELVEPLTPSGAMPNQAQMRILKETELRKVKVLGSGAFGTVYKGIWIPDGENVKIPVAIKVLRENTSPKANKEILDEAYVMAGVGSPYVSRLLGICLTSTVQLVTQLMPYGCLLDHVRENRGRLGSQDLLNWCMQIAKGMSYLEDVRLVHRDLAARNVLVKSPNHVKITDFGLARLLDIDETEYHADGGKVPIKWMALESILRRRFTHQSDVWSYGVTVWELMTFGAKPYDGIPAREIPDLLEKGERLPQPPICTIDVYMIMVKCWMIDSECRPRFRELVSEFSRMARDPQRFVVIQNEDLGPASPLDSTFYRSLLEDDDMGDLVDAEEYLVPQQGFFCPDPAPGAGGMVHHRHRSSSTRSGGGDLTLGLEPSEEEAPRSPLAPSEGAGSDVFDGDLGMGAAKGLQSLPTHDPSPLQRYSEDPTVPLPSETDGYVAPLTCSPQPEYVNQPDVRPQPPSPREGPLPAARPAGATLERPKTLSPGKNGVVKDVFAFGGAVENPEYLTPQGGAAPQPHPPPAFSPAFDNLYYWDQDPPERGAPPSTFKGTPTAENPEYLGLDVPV
# TEST_DETAILS: Determination of HER2 kinase inhibitory activity
# Type: biochemical
# Design: concentration or dose not given beside the values
# RUN_PARAMETERS: compound at 1.0 μL (so in the source), [γ-32P]ATP, poly-Glu:Tyr (4:1) substrate
ASSAY_READOUT: inhibitory rate (%) at 1.0 μL

> print(dat)
                                smiles.code                               system.name  units.text  recorded.value
1  Clc1cc(N2CCn3ccc4ncnc2c43)ccc1Oc1cccc2sncc12  HER2 kinase (HER2 intracellular domain) (Homo sapiens, UniProt P04626)           %             100
2  Cc1cc(Nc2ncnc3ccn(CCO)c23)ccc1Oc1cccc2sncc12  HER2 kinase (HER2 intracellular domain) (Homo sapiens, UniProt P04626)           %             100
3  CC(=O)NCCn1ccc2ncnc(Nc3ccc(Oc4cccc5sncc45)c(Cl)c3)c21  HER2 kinase (HER2 intracellular domain) (Homo sapiens, UniProt P04626)           %             100
4  Cl.Cn1c(Cl)cc2ncnc(Nc3ccc(Oc4cccc5sncc45)c(Cl)c3)c21  HER2 kinase (HER2 intracellular domain) (Homo sapiens, UniProt P04626)           %             100
5  CC(C)(N)C(=O)NCCn1ccc2ncnc(Nc3ccc(Oc4cccc5sncc45)c(Cl)c3)c21  HER2 kinase (HER2 intracellular domain) (Homo sapiens, UniProt P04626)           %             100
6  OCCn1ccc2ncnc(Nc3ccc(Oc4ccc5cnsc5c4)c(Cl)c3)c21  HER2 kinase (HER2 intracellular domain) (Homo sapiens, UniProt P04626)           %              98
7  CC(C)(CO)C(=O)NCCn1ccc2ncnc(Nc3cc(F)c(Oc4cccc5sncc45)c(Cl)c3)c21  HER2 kinase (HER2 intracellular domain) (Homo sapiens, UniProt P04626)           %              99
8  COc1cc(Nc2ncnc3ccn(CCO)c23)ccc1Oc1cccc2sncc12  HER2 kinase (HER2 intracellular domain) (Homo sapiens, UniProt P04626)           %              98
